Target: UniProt P49684
Sequence (P49684 whole entry): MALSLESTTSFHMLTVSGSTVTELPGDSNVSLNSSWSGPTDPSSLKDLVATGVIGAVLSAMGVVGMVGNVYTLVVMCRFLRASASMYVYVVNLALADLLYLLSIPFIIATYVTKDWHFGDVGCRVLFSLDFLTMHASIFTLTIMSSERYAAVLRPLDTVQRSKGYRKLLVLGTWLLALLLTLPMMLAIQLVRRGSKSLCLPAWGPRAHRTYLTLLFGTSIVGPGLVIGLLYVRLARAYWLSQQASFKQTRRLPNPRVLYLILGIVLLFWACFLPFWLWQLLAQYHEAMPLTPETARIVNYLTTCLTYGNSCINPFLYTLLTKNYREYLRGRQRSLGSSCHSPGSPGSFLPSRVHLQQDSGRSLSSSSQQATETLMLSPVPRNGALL
Test: Agonist activity at urotensin-2 receptor in Sprague-Dawley rat aortic rings assessed as KCl-induced vasoconstriction
Details: read-out: EC50
pEC50: −log10 of the molar value.
# pEC50 values compiled below

compound_structure_string	pEC50
CC(C)[C@H](NC(=O)[C@@H]1CSSC[C@H](NC(=O)[C@H](C)N)C(=O)N[C@@H](Cc2ccccc2)C(=O)N[C@@H](Cc2c[nH]c3ccccc23)C(=O)N[C@@H](CCCCN)C(=O)N[C@@H](Cc2ccc(O)cc2)C(=O)N1)C(=O)O	8.15
CC(C)[C@H](NC(=O)[C@@H]1CSSC[C@H](NC(=O)[C@H](C)N)C(=O)N[C@@H](Cc2ccccc2)C(=O)N[C@@H]2Cc3c([nH]c4ccccc34)CN(C2=O)[C@@H](CCCCN)C(=O)N[C@@H](Cc2ccc(O)cc2)C(=O)N1)C(=O)O	6.80
CC(C)[C@H](NC(=O)[C@@H]1CSSC[C@H](NC(=O)[C@H](C)N)C(=O)N[C@@H](Cc2ccccc2)C(=O)N[C@@H](c2ccccc2)C(=O)N[C@@H](CCCCN)C(=O)N[C@@H](Cc2ccc(O)cc2)C(=O)N1)C(=O)O	6.60
CC(C)[C@H](NC(=O)[C@@H]1CSSC[C@H](NC(=O)[C@H](C)N)C(=O)N[C@@H](Cc2ccccc2)C(=O)N[C@H](c2ccccc2)C(=O)N[C@@H](CCCCN)C(=O)N[C@@H](Cc2ccc(O)cc2)C(=O)N1)C(=O)O	6.93
CC(C)[C@H](NC(=O)[C@@H]1CSSC[C@H](NC(=O)[C@H](C)N)C(=O)N[C@@H](Cc2ccccc2)C(=O)N2Cc3ccccc3C[C@@H]2C(=O)N[C@@H](CCCCN)C(=O)N[C@@H](Cc2ccc(O)cc2)C(=O)N1)C(=O)O	6.59
CC(C)[C@H](NC(=O)[C@@H]1CSSC[C@H](NC(=O)[C@H](C)N)C(=O)N[C@@H](Cc2ccccc2)C(=O)N[C@@H](Cc2cccc3ccccc23)C(=O)N[C@@H](CCCCN)C(=O)N[C@@H](Cc2ccc(O)cc2)C(=O)N1)C(=O)O	7.27
CC(C)[C@H](NC(=O)[C@@H]1CSSC[C@H](NC(=O)[C@H](C)N)C(=O)N[C@@H](Cc2ccccc2)C(=O)N[C@H]2Cc3c([nH]c4ccccc34)CN(C2=O)[C@@H](CCCCN)C(=O)N[C@@H](Cc2ccc(O)cc2)C(=O)N1)C(=O)O	6.74
CC(C)[C@H](NC(=O)[C@@H]1CSSC[C@H](NC(=O)[C@H](C)N)C(=O)N[C@@H](Cc2ccccc2)C(=O)N[C@H](Cc2cccc3ccccc23)C(=O)N[C@@H](CCCCN)C(=O)N[C@@H](Cc2ccc(O)cc2)C(=O)N1)C(=O)O	6.08
CC(C)[C@H](NC(=O)[C@@H]1CSSC[C@H](NC(=O)[C@H](CC(=O)O)NC(=O)[C@@H]2CCCN2C(=O)[C@@H](NC(=O)[C@@H](N)CCC(=O)O)[C@@H](C)O)C(=O)N[C@@H](Cc2ccccc2)C(=O)N[C@@H](Cc2c[nH]c3ccccc23)C(=O)N[C@@H](CCCCN)C(=O)N[C@@H](Cc2ccc(O)cc2)C(=O)N1)C(=O)O	9.00

src = ChEMBL document CHEMBL3102770
